Documented GI50 across a set of compounds
# Test system: SR
# Experiment Description: NCI tumour cell line growth inhibition, 48 h
Calls of active or inactive are those of the source. Cut-off read from the data, not from the text of the source: active = GI50 up to about 1.1 µM and inactive = higher. Square brackets hold non-standard residues; d marks the D form. Peptide text beside a SMILES is read from it. * marks the point of attachment. Boc = CC(C)(C)OC(=O)*; Lac = C[CH](O)C(=O)O; OBn = c1ccc(CO*)cc1
Measured Property: GI50

Compound: CC[C@@H](/C=C\CCC(=O)C[C@H](O)CCC=C(C)C)O[Si](C(C)C)(C(C)C)C(C)C
Reported Measurement: 39.4 µM (inactive)
//
Compound: O=C1CSC(c2cccc(Cl)c2)N1c1c(O)c(Cl)cc(Br)c1Cl (centres undefined)
Reported Measurement: 24.8 µM (inactive)
//
Compound: Oc1ccc2c(c1)OCC1(O)Cc3cc(O)c(O)cc3C21 (centres undefined)
Reported Measurement: 30.8 µM (inactive)
//
Compound: COc1ccccc1/C=C1\CCC(CCN(C)C)(C2=CCCC2)C1=O (centres undefined)
Reported Measurement: 31.6 µM (inactive)
//
Compound: CC(OC(=O)C(Cc1ccccc1)NC(=O)C(Cc1ccccc1)NC(=O)OC(C)(C)C)C(=O)OCc1ccccc1 (stereo not drawn) (Boc-Phe-Phe-[Lac]-OBn; configuration not given here)
Reported Measurement: > 100 µM (inactive)
//
Compound: Clc1ccc(/C(=C\c2ccccc2)Cn2ccnc2)cc1
Reported Measurement: 3.46 µM (inactive)
//
Compound: CC(C)NC(=O)OCc1c(COC(=O)NC(C)C)c(-c2ccc[n+](COC(=O)C3CCCCC3)c2)n2c1CCC2
Reported Measurement: > 100 µM (inactive)
//
Compound: CCOC(=O)C(NC(=O)c1ccccc1)(N1CCN(c2cc3c(cc2F)c(=O)c(C(=O)O)cn3C2CC2)CC1)C(F)(F)F (centres undefined)
Reported Measurement: 20.5 µM (inactive)
//
Compound: CC1=C(Nc2c(C)cc(O)cc2O)C(=O)C=c2oc3c(c21)C(C)=C(Nc1c(C)cc(O)cc1O)C(=O)C=3
Reported Measurement: 0.0313 µM (active)
//
Compound: N=C(N)N/N=C/c1c(-c2cc([N+](=O)[O-])c(Cl)cc2Cl)nc2n1CCS2
Reported Measurement: 0.951 µM (active)
//
Compound: CC(C)C1=CC23CCC4C(C)(C(=O)O)CCCC4(C)C2CC1C(C(=O)O)C3C(=O)O (centres undefined)
Reported Measurement: > 100 µM (inactive)
//
Compound: CC(C)[C@H]1C(=O)O[B@-](F)(c2ccccc2)/[N+]1=C\N(C)C
Reported Measurement: > 100 µM (inactive)
//
Compound: O=C1Nc2ccc(Cl)cc2/C1=C\c1c(Cl)nc2sccn12
Reported Measurement: 0.338 µM (active)
//
Compound: Cc1ccc([C@H]2CC(=O)C[C@H](c3ccc(C)cc3)C23C(=O)c2ccccc2C3=O)cc1
Reported Measurement: 13.2 µM (inactive)
//
Compound: Cc1c(C(=O)c2ccccc2)[n+]([O-])c2cc(Cl)c(Cl)cc2[n+]1[O-]
Reported Measurement: 1.54 µM (inactive)
//
Compound: COc1cc(C2c3cc4c(cc3C3OC[C@@H]2C3CO)OCO4)cc(OC)c1OC (some centres undefined)
Reported Measurement: 13.3 µM (inactive)
//
Compound: CCC(=O)NC(Nc1cccc(F)c1)(C(F)(F)F)C(F)(F)F
Reported Measurement: > 100 µM (inactive)
//
Compound: C(=N\NC1=NCCN1)/c1ccc(-c2cn3cc(/C=N/NC4=NCCN4)ccc3n2)cc1
Reported Measurement: 3.33 µM (inactive)
//
Compound: COc1ccc2oc(C(=O)N3CC(CCl)c4ccc(N)cc43)cc2c1 (centres undefined)
Reported Measurement: 0.16 µM (active)
